pIC50: −log10 of the molar value.
// compounds with reported pIC50 on UniProtKB O70536, multi-publication
Sequence (O70536 whole entry): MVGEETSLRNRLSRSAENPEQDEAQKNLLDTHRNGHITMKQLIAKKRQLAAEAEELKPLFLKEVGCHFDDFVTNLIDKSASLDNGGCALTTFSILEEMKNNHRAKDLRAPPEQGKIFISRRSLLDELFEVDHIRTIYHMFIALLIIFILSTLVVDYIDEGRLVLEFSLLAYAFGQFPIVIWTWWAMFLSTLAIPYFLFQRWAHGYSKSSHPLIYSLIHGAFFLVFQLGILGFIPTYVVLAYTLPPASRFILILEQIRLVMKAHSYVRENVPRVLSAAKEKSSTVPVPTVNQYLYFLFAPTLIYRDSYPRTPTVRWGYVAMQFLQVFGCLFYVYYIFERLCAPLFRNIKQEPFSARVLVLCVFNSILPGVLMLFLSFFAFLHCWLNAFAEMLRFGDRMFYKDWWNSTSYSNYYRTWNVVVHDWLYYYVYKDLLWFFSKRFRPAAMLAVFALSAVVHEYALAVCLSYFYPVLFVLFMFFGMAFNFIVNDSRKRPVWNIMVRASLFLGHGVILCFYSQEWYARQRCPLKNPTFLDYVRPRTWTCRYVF
Test readout: pIC50

- CCCCCCCCCCCCc1nc(C(C(=O)Nc2c(OC)cc(OC)cc2OC)c2ccccc2)no1 (stereo not drawn): 7.51
- C[C@H]1[C@H](C)CC[C@]2(C(=O)O)CC[C@]3(COC(=O)/C=C\c4ccc(O)cc4)C(=CC[C@@H]4[C@@]5(C)CC[C@H](O)[C@@](C)(CO)[C@@H]5CC[C@]43C)[C@H]12: 3.71
- COc1ccc(-c2nc(SCC3C[C@](C)(O)CC(=O)O3)[nH]c2-c2ccc(OC)cc2)cc1 (stereo partly drawn): 6.38
- O=c1cc(-c2ccccc2)c(-c2ccccc2)nn1C1CCCC1: 3.92
- CCCCCCCN(CCSc1nc(-c2ccccc2)c(-c2ccccc2)[nH]1)C(=O)Nc1ccc(F)cc1F: 7.15
- CC(C)c1cccc(C(C)C)c1NC(=O)NS(=O)(=O)N(C(C)C)C(C)C: 6.62

a: O=C(Cn1c2c(c(=O)n3nc(-c4ccccc4)cc13)CN(Cc1ccccc1)C2=O)c1ccccc1
b: CCCCCCCN(CCCCCSc1nc(-c2ccccc2)c(-c2ccccc2)[nH]1)C(=O)OC1CCCCC1
Query: Looking only at measured pIC50, which entry is lower, a or b ? Kindly give the label for the entry you pick.
Result: a
(a: 5.26, b: 7.30)
